assaySystem: SARS-CoV-2 3CLpro (Severe acute respiratory syndrome coronavirus 2, UniProt P0DTD1)
recordedMetric: IC50

Below: 2 compounds and their reported IC50.
### Prompt Answer briefly: IC50 recorded on SARS-CoV-2 3CLpro (Severe acute respiratory syndrome coronavirus 2, UniProt P0DTD1) for O=C(NC1(C(F)(F)F)CC1)c1cc(Br)cc([N+](=O)[O-])c1N[C@@H]1CCCC[C@@H]1NC(=O)c1cncc2ccccc12
### Response 100 to 1000 nM

### Prompt Quote IC50 with test system SARS-CoV-2 3CLpro (Severe acute respiratory syndrome coronavirus 2, UniProt P0DTD1) for CNC(=O)c1cc(Cl)cc([N+](=O)[O-])c1N[C@H]1CN(C(=O)c2cncc3ncn(C)c23)CCC1(F)F
### Response < 100 nM

# input for lookup
### Prompt Give IC50; test system SARS-CoV-2 3CLpro (Severe acute respiratory syndrome coronavirus 2, UniProt P0DTD1); compound CNC(=O)c1cc(Br)cc([N+](=O)[O-])c1N[C@@H]1CCCC[C@@H]1NC(=O)c1cncc2cc(F)ccc12
### Response < 100 nM

###

Recorded IC50 values (SARS-CoV-2 3CLpro (Severe acute respiratory syndrome coronavirus 2)) are given below.

### Prompt Let me know recorded IC50 for CNC(=O)c1cc(Br)cc([N+](=O)[O-])c1N[C@@H]1CCCC[C@@H]1NC(=O)C[C@@H]1CCNC1=O [Compound 7] , thanks.
### Response 1000 to 10000 nM

Please give IC50 for each item listed below.
1. CNC(=O)c1cc(Br)cc([N+](=O)[O-])c1N[C@H]1CN(C(=O)c2cncc3ccccc23)C[C@H]1F [Compound 166]
2. O=C(c1cc(Br)cc(C(F)(F)F)c1N[C@H]1CN(C(=O)c2cncc3cccnc23)CCC1(F)F)N1CC(O)C1 [Compound 110]
3. O=C(c1cc(Br)cc([N+](=O)[O-])c1N[C@H]1CN(C(=O)c2cncc3ccccc23)CC1(F)F)N1CC(F)(F)C1 [Compound 162]

### Response
["< 100 nM", "< 100 nM", "< 100 nM"]

###

Notes on pIC50 obtained with SARS-CoV-2 3CLpro (Severe acute respiratory syndrome coronavirus 2, UniProt P0DTD1).
pIC50: −log10 of the molar value.

### Prompt Given CNC(=O)c1cc(Br)cc([N+](=O)[O-])c1N[C@H]1CN(C(=O)c2cnc3ccccn23)CCC1(F)F [Compound 101] , report its pIC50 on SARS-CoV-2 3CLpro (Severe acute respiratory syndrome coronavirus 2, UniProt P0DTD1).
### Response > 7.00

### Prompt Please report pIC50 with SARS-CoV-2 3CLpro (Severe acute respiratory syndrome coronavirus 2, UniProt P0DTD1) for item NC(=O)c1cc(Br)cc([N+](=O)[O-])c1N[C@@H]1CCCC[C@@H]1NC(=O)c1cncc2ccccc12 [Compound 53] .
### Response 6.00 to 7.00

### Prompt Enter pIC50 (test system SARS-CoV-2 3CLpro (Severe acute respiratory syndrome coronavirus 2, UniProt P0DTD1)) for CNC(=O)c1cc(Cl)cc([N+](=O)[O-])c1N[C@H]1CN(C(=O)c2cncc3ccncc23)CC[C@@H]1F [Compound 171]
### Response > 7.00

Parameters: items (list). Returns: pIC50 for each item.
1. CNC(=O)c1cc(Br)cc([N+](=O)[O-])c1N[C@H]1CN(C(=O)c2cccnc2C#N)CCC1(F)F [Compound 114]
2. CNC(=O)c1cc(Cl)cc([N+](=O)[O-])c1N[C@H]1CN(C(=O)c2cncc3ccn(C)c23)CC[C@@H]1F [Compound 178]
3. CNC(=O)c1cc(Cl)cc([N+](=O)[O-])c1N[C@H]1CN(C(=O)c2cncc3ccn(C)c23)CCC1(F)F [Compound 86]
4. CNC(=O)c1cc(Br)cc([N+](=O)[O-])c1N[C@H]1CN(Cc2cncc3ccccc23)CCC1(F)F [Compound 32]
5. CC1(NC(=O)c2cc(Br)cc([N+](=O)[O-])c2N[C@H]2CN(C(=O)c3cncc4ccccc34)CCC2(F)F)CC1 [Compound 157]

### Response
1. 5.00 to 6.00
2. > 7.00
3. > 7.00
4. 6.00 to 7.00
5. > 7.00

For every item below, please supply its pIC50.
1. CNC(=O)c1cc(Br)cc(C(F)(F)F)c1N[C@H]1CN(C(=O)c2cncc3ccccc23)CC[C@H]1F [Compound 181]
2. O=C(NC1CC(F)(F)C1)c1cc(Cl)cc(C(F)(F)F)c1N[C@H]1CN(C(=O)c2cncc3ccccc23)CCC1(F)F [Compound 82]
3. O=C(NC1CC(F)(F)C1)c1cc(Br)cc(C(F)(F)F)c1N[C@@H]1COCC[C@@H]1NC(=O)c1cncc2ccccc12 [Compound 79]
4. C[C@@H](NC(=O)c1cc(Br)cc([N+](=O)[O-])c1N[C@@H]1COCC[C@@H]1NC(=O)c1cncc2ccccc12)C(F)(F)F [Compound 136]
5. O=C(N[C@H]1CCCC[C@H]1Nc1c(C(=O)N2CC(F)(F)C2)cc(Br)cc1[N+](=O)[O-])c1cncc2ccccc12 [Compound 14]
6. C[C@@H](NC(=O)c1cc(Br)cc([N+](=O)[O-])c1N1CCC2(CN(C(=O)c3cncc4ccccc34)CC2(F)F)C1)C(F)(F)F (some centres unmarked) [Compound 78]

### Response
> 7.00
> 7.00
> 7.00
6.00 to 7.00
6.00 to 7.00
> 7.00

###

Tested on: SARS-CoV-2
assayInfo: Anti-SARS-CoV-2 activity in A549 cells expressing the human ACE2 receptor (inhibition of SARS-CoV-2 replication)
Assay type: cell-based
settings: read-out: Antiviral Activity (EC50); inhibition of SARS-CoV-2 replication in mammalian cells; A549-ACE2 cells, 24 hours infection
recordedMetric: EC50

### Prompt Find the measured EC50 of O=C(NC1CCOC1)c1cc(Cl)cc([N+](=O)[O-])c1N[C@H]1CN(C(=O)c2cncc3ccccc23)CCC1(F)F (stereo in doubt) [Compound 159] and report it.
### Response < 100 nM

###

SARS-CoV-2 3CLpro (Severe acute respiratory syndrome coronavirus 2, UniProt P0DTD1) data, read-out IC50

Here are 8 molecules together with their reported answers.
### Prompt Recall the reported IC50 of CNC(=O)c1cc(Br)cc([N+](=O)[O-])c1NC(C(C)C)C1CN(C(=O)c2cncc(C(F)(F)F)c2)C1 (stereo not shown) [Compound 73] when tested on SARS-CoV-2 3CLpro (Severe acute respiratory syndrome coronavirus 2, UniProt P0DTD1).
### Response 1000 to 10000 nM

### Prompt Look up SARS-CoV-2 3CLpro (Severe acute respiratory syndrome coronavirus 2, UniProt P0DTD1) data: IC50 of CNC(=O)c1cc(Br)cc([N+](=O)[O-])c1N[C@@H]1CCCC[C@@H]1NC(=O)c1cncc(N)c1 [Compound 3] , then report it.
### Response 1000 to 10000 nM

### Prompt Under SARS-CoV-2 3CLpro (Severe acute respiratory syndrome coronavirus 2, UniProt P0DTD1): report IC50 of CNC(=O)c1cc(Br)cc([N+](=O)[O-])c1N[C@H]1CN(C(=O)c2cncc3ccccc23)CC[C@@H]1F [Compound 87] .
### Response < 100 nM

### Prompt Enter recorded IC50 with SARS-CoV-2 3CLpro (Severe acute respiratory syndrome coronavirus 2, UniProt P0DTD1) for CNC(=O)c1cc(Br)cc([N+](=O)[O-])c1Nc1ccccc1NC(=O)c1cncc2ccccc12 [Compound 131] here.
### Response ≥ 10000 nM

### Prompt Check SARS-CoV-2 3CLpro (Severe acute respiratory syndrome coronavirus 2, UniProt P0DTD1) data and give IC50 for CNC(=O)c1cc(Cl)cc([N+](=O)[O-])c1N[C@H]1CN(C(=O)c2cncc3cccnc23)CCC1(F)F [Compound 98] .
### Response < 100 nM

### Prompt Fill in: IC50 on SARS-CoV-2 3CLpro (Severe acute respiratory syndrome coronavirus 2, UniProt P0DTD1), entry CNC(=O)c1cc(Br)cc([N+](=O)[O-])c1N[C@H]1CN(C(=O)C2CC(=O)Nc3ccccc32)CCC1(F)F (stereo partly shown) [Compound 104]
### Response < 100 nM

### Prompt Report value only: IC50, SARS-CoV-2 3CLpro (Severe acute respiratory syndrome coronavirus 2, UniProt P0DTD1), CNC(=O)c1cc(Br)cc([N+](=O)[O-])c1N[C@H]1CN(C(=O)c2cncc3cccnc23)CCC1(F)F [Compound 107]
### Response < 100 nM

### Prompt Look up and report measured IC50 (SARS-CoV-2 3CLpro (Severe acute respiratory syndrome coronavirus 2, UniProt P0DTD1)) for the following molecule: O=C(NC1CC(F)(F)C1)c1cc(Br)cc([N+](=O)[O-])c1N[C@H]1CN(C(=O)c2cncc3ccccc23)CC(F)(F)C1 [Compound 134]
### Response 100 to 1000 nM

Each of the following entries comes with a recorded value; kindly state IC50 for each.
1. O=C(NC1CC(F)(F)C1)c1cc(Br)cc([N+](=O)[O-])c1N[C@H]1CN(C(=O)c2cncc3ccccc23)CC12CC2 [Compound 30]
2. CNC(=O)c1cc(Cl)cc([N+](=O)[O-])c1N[C@H]1CN(C(=O)c2cncc3cc(O)ccc23)CCC1(F)F [Compound 168]
3. CNC(=O)c1cc(Br)cc(C(F)(F)F)c1N[C@H]1CN(C(=O)c2cncc3cccnc23)CCC1(F)F [Compound 167]
4. O=C(c1cc(Br)cc(C(F)(F)F)c1N[C@H]1CN(C(=O)c2cncc3ccccc23)CCC1(F)F)N1CC(O)C1 [Compound 173]
5. O=C(N[C@H]1CCOC1)c1cc(Cl)cc(C(F)(F)F)c1N[C@H]1CN(C(=O)c2cncc3ccccc23)CCC1(F)F [Compound 165]

### Response
< 100 nM
< 100 nM
< 100 nM
< 100 nM
< 100 nM
